Provide the reported pest or weed control at 140 g/ha of each item.
tested on: Key Broadleaf Weed and Crop Species; test: Post-emergent Test II herbicidal activity (Table 5); format: in vivo; conditions: post-emergence, 336 h; HELAN: sunflower (Helianthus annuus); 140 g ai/ha; post-emergent; 14 days after application; read-out: Visual Growth Reduction (%) 14 Days After Application HELAN

Recorded pest or weed control at 140 g/ha, per entry:
C=Cc1c(C(=O)OC)nc(-c2ccc(C(F)(F)F)c(F)c2F)c(F)c1N | 0 to 29%
C=Cc1c(N)nc(-c2ccc(I)cc2)nc1C(=O)O | 75 to 84%

Batch request: pest or weed control at 140 g/ha for each of the following molecules.
1. Nc1c(Cl)c(C(=O)O)nc(-c2ccc(I)c(F)c2)c1Cl
2. COc1c(N)nc(-c2ccc(OC(F)(F)F)cc2)nc1C(=O)O
3. COC(=O)c1nc(-c2ccc(Br)cc2F)cc(N)c1Cl
4. N#Cc1ccc(-c2nc(C(=O)O)c(Cl)c(N)c2Cl)cc1
5. COC(=O)c1nc(-c2ccc(Br)cc2)c(Cl)c(N)c1Cl
6. COC(=O)c1nc(-c2ccc(Br)c(F)c2)c(C)c(N)c1Cl
7. C#Cc1ccc(-c2nc(N)c(OC)c(C(=O)O)n2)cc1

1. 95 to 100%
2. 60 to 74%
3. 85 to 94%
4. 95 to 100%
5. 95 to 100%
6. 95 to 100%
7. 85 to 94%

====

test system: VIOSS: wild pansy (Viola tricolor), field violet (Viola arvensis); assay: Post-emergent Test III, herbicidal activity in wheat and barley; type: in vivo; conditions: probit analysis; dose for 80 percent growth reduction; 21 days after application
assay.endpoint: GR80 VIOSS (g ai/ha)
One number for each entry, in g ai/ha.

Recorded GR80 VIOSS, per entry:
Nc1c(F)c(-c2ccc(I)c(F)c2F)nc(C(=O)O)c1Cl [Compound 141] | 11
Nc1c(F)c(-c2ccc(I)cc2F)nc(C(=O)O)c1Cl [Compound 169] | 36
Nc1c(F)c(-c2ccc(Br)cc2F)nc(C(=O)O)c1Cl [Compound 163] | 29

Batch request: GR80 VIOSS for each of the following molecules.
1. COC(=O)c1nc(-c2ccc(Br)cc2F)c(F)c(N)c1Cl [Compound 52]
2. Nc1c(F)c(-c2cc(F)c(I)cc2F)nc(C(=O)O)c1Cl [Compound 69]
3. COC(=O)c1nc(-c2ccc(Br)c(F)c2F)nc(N)c1OC [Compound 122]
4. COc1c(N)nc(-c2ccc(Br)c(F)c2F)nc1C(=O)O [Compound 8]

[19, 8, 21, 28]

====

test system: test plant species in Direct Seeded Rice; test: Postemergence herbicidal activity in direct seeded rice (Table 13); assay type: in vivo; conditions: ECHSS: barnyardgrass (Echinochloa crus-galli), junglerice (Echinochloa colonum); probit analysis
Strictly below 10 g ai/ha in GR50 ECHSS: 1. Otherwise: -1.

Use the examples below as a reference point.
COC(=O)c1nc(-c2ccc(I)cc2F)cc(N)c1Cl | 1
COC(=O)c1nc(-c2ccc(Br)c(F)c2F)nc(N)c1OC | 1
Nc1cc(-c2ccc(Br)cc2F)nc(C(=O)O)c1Cl | 1

Note: attention shifts to another entry.
GR50 ECHSS under 10 g ai/ha? Item: "Nc1c(Cl)c(C(=O)O)nc(-c2ccc(I)cc2)c1Cl"
-1
